- system.name: Fuc(a1-2)[Gal(a1-3)]Gal(b1-4)GlcNAc(b1-2)Man(a1-3)[Fuc(a1-2)[Gal(a1-3)]Gal(b1-4)GlcNAc(b1-2)Man(a1-6)]Man(b1-4)GlcNAc(b1-4)[Fuc(a1-6)]GlcNAc
- assay.procedure: glycan array binding signal (z-score within array); higher = stronger binding
- setup.conditions: glycan notation: IUPAC condensed, linker removed
The sample as a whole holds a higher share of the strongest signals than the screen did.
recorded.endpoint: glycan array binding signal (z-score)
Reply with the value as a number alone.

Banana lectin (Musa acuminata) (protein) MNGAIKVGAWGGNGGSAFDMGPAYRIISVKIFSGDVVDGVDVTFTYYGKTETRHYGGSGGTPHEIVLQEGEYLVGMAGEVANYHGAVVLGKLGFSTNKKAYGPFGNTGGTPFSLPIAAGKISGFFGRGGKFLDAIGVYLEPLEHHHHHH; 0.595

Attention now turns to another entry.
Endpoint output: glycan array binding signal (z-score) of DrGRIFIN (Danio rerio), Q6DGJ1 (protein) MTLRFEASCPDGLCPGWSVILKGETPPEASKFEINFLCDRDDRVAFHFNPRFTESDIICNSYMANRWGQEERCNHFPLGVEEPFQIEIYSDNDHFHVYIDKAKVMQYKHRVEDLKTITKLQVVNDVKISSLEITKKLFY . Value?
5.59
